Assay: Pharmacokinetic study in vivo in mice
Conditions: mouse, plasma; oral administration, male C57BL/6J mice, dose 28.2-51.0 mg/kg; read-out: area under plasma concentration-time curve AUC0-last
measure_name: AUC(0-t) (µM·h)
Quick note: give the figure in µM·h, leave out the unit.

Reported AUC(0-t), compound C#Cc1c(F)ccc2cc(N)cc(-c3c(F)cc4c(N5CC6C=CC(C5)N6)nc(OC[C@@]56CCCN5C[C@H](F)C6)nc4c3F)c12 [Compound 002A] : ____
0.637

----------
Test: Pharmacokinetic study in vivo in mice
Conditions: mouse, plasma; intravenous administration, male C57BL/6J mice, dose 1.74-1.94 mg/kg; read-out: clearance rate CL
Experimental: Male C57BL/6J mice aged 7 to 10 weeks were selected, and administered candidate compound solutions intravenously or orally. Whole blood was collected for a certain period of time. Plasma was prepared. Drug concentration was analyzed by LC-MS/MS method. Pharmacokinetic parameters were calculated using Certara WinNonlin software (Certara Company, USA).
measure_name: clearance (mL/min/kg)
Lab book: enter the figure in mL/min/kg, no units written.

clearance for C#Cc1c(F)ccc2cc(N)cc(-c3c(F)cc4c(N5CC6C=CC(C5)N6)nc(OC[C@@]56CCCN5C[C@H](F)C6)nc4c3F)c12 [Compound 002A] ?
189

----------
Test: Pharmacokinetic study in vivo in mice
Settings: mouse, plasma; intravenous administration, male C57BL/6J mice, dose 1.74-1.94 mg/kg; read-out: half-life T1/2 (converted)
Procedure: Male C57BL/6J mice aged 7 to 10 weeks were selected, and administered candidate compound solutions intravenously or orally. Whole blood was collected for a certain period of time. Plasma was prepared. Drug concentration was analyzed by LC-MS/MS method. Pharmacokinetic parameters were calculated using Certara WinNonlin software (Certara Company, USA).
measure_name: half-life (h)
Give the quantity in h, number only.

Quick check: half-life of C#Cc1c(F)ccc2cc(N)cc(-c3c(F)cc4c(N5CC6C=CC(C5)N6)nc(OC[C@@]56CCCN5C[C@H](F)C6)nc4c3F)c12 [Compound 002A] ?
7.12

----------
Assay: Pharmacokinetic study in vivo in mice
Settings: mouse, plasma; oral administration, male C57BL/6J mice, dose 28.2-51.0 mg/kg; read-out: peak concentration Cmax
Protocol: Male C57BL/6J mice aged 7 to 10 weeks were selected, and administered candidate compound solutions intravenously or orally. Whole blood was collected for a certain period of time. Plasma was prepared. Drug concentration was analyzed by LC-MS/MS method. Pharmacokinetic parameters were calculated using Certara WinNonlin software (Certara Company, USA).
measure_name: Cmax

Value lookup for Cmax; key = C#Cc1c(F)ccc2cc(N)cc(-c3c(F)cc4c(N5CC6C=CC(C5)N6)nc(OC[C@@]56CCCN5C[C@H](F)C6)nc4c3F)c12 [Compound 002A]
345 nM

----------
Tested on: KRAS^G12D mutated AsPC-1 cells
Assay: Anti-cell proliferation in tumor cell line AsPC-1 (CellTiter-Glo 3D)
Assay type: cell-based
Conditions: Homo sapiens, ASPC1; AsPC-1, 120 hours, 3D culture; read-out: Anti-proliferation Activity against KRAS^G12D Mutated AsPC-1 Cells IC50
measure_name: pIC50
# pIC50 is unitless: minus log10 of the molar concentration; print number only

INSERT INTO measurements (compound, recorded_result) VALUES
  ('C#Cc1c(F)ccc2cc(N)cc(-c3c(F)cc4c(N5CC6C=CC(C5)N6)nc(OC[C@@]56CCCN5C[C@H](F)C6)nc4c3F)c12 [Compound 002A]', 7.75);

Now look at this entry.
State the recorded pIC50 for this entry: C#Cc1c(F)ccc2cc(N)cc(-c3c(F)cc4c(N5CC6C=CC(C5)N6)nc(OC[C@]56CCCN5CC(=C)C6)nc4c3F)c12 [Compound 016B]
7.85

Reference source: patent US20240383924A1
